System: EGFP reporter (7×TetO array, basal CMV promoter) in HEK293T reporter cell line
test.method.notes: TAD-seq pooled activation screen of 60-aa fragments fused to PYL1
Assay type: cell-based, human
setup.conditions: high GFP population (top 1%)
outcome.measure: Hit high GFP

Could you tell me which Hit high GFP is on file for KLF6-1: 60-aa TAD-seq fragment of KLF6 (MDVLPMCSIFQELQIVHETGYFSALPSLEEYWQQTCLELERYLQSEPCYVSASEIKFDSQ; listed as Homo sapiens) ?
hit

Could you tell me which Hit high GFP is on file for C3orf62-12: 60-aa TAD-seq fragment of C3orf62 (QDSPFKEEAWALLMDKSPQKATDADPGSLKQAFDDHNIVETVLDLEEDYNVMTSFKYQIE; listed as Homo sapiens) [Fragment C3orf62-12] ?
hit

Could you tell me which Hit high GFP is on file for FAM90A1-20: 60-aa TAD-seq fragment of FAM90A1 (HPAASHDGAQPLRVLFRRLENGRWSSSLLTAPSFHSPEKPGAFLAQSPHVSEKSEGPCVR; listed as Homo sapiens) ?
hit

====

Test system: EGFP reporter (7×TetO array, basal CMV promoter) in HEK293T reporter cell line
test.method.notes: TAD-seq pooled activation screen of 60-aa fragments fused to PYL1
Type: cell-based, human
setup.conditions: log 2 fold change of counts, sorted medium GFP cells (top 2-5%) vs unsorted cells; 100 μM ABA 48 hours
This listing pairs substances with measured logFC medium GFP.
Could you keep your reply to the number by itself?

// below: answered substances
Could you tell me which logFC medium GFP is on file for RELB-2: 60-aa TAD-seq fragment of RELB (RRVARPPAAPELGALGSPDLSSLSLAVSRSTDELEIIDEYIKENGFGLDGGQPGPGEGLP; listed as Homo sapiens) ?
1.711

Could you tell me which logFC medium GFP is on file for ATF6B-1: 60-aa TAD-seq fragment of ATF6B (MAELMLLSEIADPTRFFTDNLLSPEDWGLQNSTLYSGLDEVAEEQTQLFRCPEQDVPFDG; listed as Homo sapiens) ?
0.9931

Could you tell me which logFC medium GFP is on file for ATMIN-24: 60-aa TAD-seq fragment of ATMIN (NPGPDTQLPSGPAQNPGIDFDIEEFFSASNIQTQTEESELSTMTTEPVLESLDIETQTDF; listed as Homo sapiens) ?
0.988

Could you tell me which logFC medium GFP is on file for C3orf62-12: 60-aa TAD-seq fragment of C3orf62 (QDSPFKEEAWALLMDKSPQKATDADPGSLKQAFDDHNIVETVLDLEEDYNVMTSFKYQIE; listed as Homo sapiens) [Fragment C3orf62-12] ?
−0.6067

Proceeding to the next substance to report its logFC medium GFP.
Could you tell me which logFC medium GFP is on file for ZXDC-13: 60-aa TAD-seq fragment of ZXDC (YLESGGSARTDYRAIQLAKEKKQRGAGSNAGASQSTQRKIKEGKMSPPHFHASQNSWLCG; listed as Homo sapiens) ?
1.734

====

Test system: EGFP reporter (7×TetO array, basal CMV promoter) in HEK293T reporter cell line
test.method.notes: TAD-seq pooled activation screen of 60-aa fragments fused to PYL1
Format: cell-based, human
setup.conditions: log 2 fold change of counts, sorted medium GFP cells (top 2-5%) vs unsorted cells; 100 μM ABA 48 hours
outcome.measure: logFC medium GFP
Could you keep your reply to the number by itself?

// below: answered substances
Could you tell me which logFC medium GFP is on file for BRD8-25: 60-aa TAD-seq fragment of BRD8 (GEELDFETVGDIIAIIEDKVDDHPEVLDVAAVEAALSFCEENDDPQSLPGPWEHPIQQER; listed as Homo sapiens) ?
1.834

Could you tell me which logFC medium GFP is on file for YAF2-7: 60-aa TAD-seq fragment of YAF2 (SHKKTRPRLKNVDRSSAQHLEVTVGDLTVIITDFKEKTKSPPASSAASADQHSQSGSSSD; listed as Homo sapiens) ?
1.828

Could you tell me which logFC medium GFP is on file for MYCBP-1: 60-aa TAD-seq fragment of MYCBP (MAHYKAADSKREQFRRYLEKSGVLDTLTKVLVALYEEPEKPNSALDFLKHHLGAATPENP; listed as Homo sapiens) ?
0.73

Could you tell me which logFC medium GFP is on file for KLF6-1: 60-aa TAD-seq fragment of KLF6 (MDVLPMCSIFQELQIVHETGYFSALPSLEEYWQQTCLELERYLQSEPCYVSASEIKFDSQ; listed as Homo sapiens) ?
1.868

Proceeding to the next substance to report its logFC medium GFP.
Could you tell me which logFC medium GFP is on file for HOXA2-4: 60-aa TAD-seq fragment of HOXA2 (PGSHPRHGAGGRPKPSPAGSRGSPVPAGALQPPEYPWMKEKKAAKKTALLPAAAAAATAA; listed as Homo sapiens) ?
1.595

====

System: EGFP reporter (7×TetO array, basal CMV promoter) in HEK293T reporter cell line
test.method.notes: TAD-seq pooled activation screen of 60-aa fragments fused to PYL1
Format: cell-based, human
setup.conditions: log 2 fold change of counts, sorted high GFP cells (top 1%) vs unsorted cells; 100 μM ABA 48 hours
This listing pairs substances with measured logFC high GFP.
Could you keep your reply to the number by itself?

Could you tell me which logFC high GFP is on file for MYOD1-2: 60-aa TAD-seq fragment of MYOD1 (CSFATTDDFYDDPCFDSPDLRFFEDLDPRLMHVGALLKPEEHSHFPAAVHPAPGAREDEH; listed as Homo sapiens) ?
0.7025

Could you tell me which logFC high GFP is on file for ATXN7L3-4: 60-aa TAD-seq fragment of ATXN7L3 (FEIVDQPGLDIFGQVFNQWKSKECVCPNCSRSIAASRFAPHLEKCLGMGRNSSRIANRRI; listed as Homo sapiens) ?
0.7641

Could you tell me which logFC high GFP is on file for SS18L2-2: 60-aa TAD-seq fragment of SS18L2 (QETIQRLLEENDQLIRCIVEYQNKGRGNECVQYQHVLHRNLIYLATIADASPTSTSKAME; listed as Homo sapiens) ?
1.012

Could you tell me which logFC high GFP is on file for HOXA2-6: 60-aa TAD-seq fragment of HOXA2 (KKAAKKTALLPAAAAAATAAATGPACLSHKESLEIADGSGGGSRRLRTAYTNTQLLELEK; listed as Homo sapiens) ?
1.951

Proceeding to the next substance to report its logFC high GFP.
Could you tell me which logFC high GFP is on file for CSRNP1-28: 60-aa TAD-seq fragment of CSRNP1 (DNIEAPHFPLPGLSPPGDASSCFLESLMGFSEPAAEALDPFIDSQFEDTVPASLMEPVPV; listed as Homo sapiens) ?
0.5029

====

Test system: EGFP reporter (7×TetO array, basal CMV promoter) in HEK293T reporter cell line
test.method.notes: TAD-seq pooled activation screen of 60-aa fragments fused to PYL1
Format: cell-based, human
setup.conditions: log 2 fold change of counts, sorted high GFP cells (top 1%) vs unsorted cells; 100 μM ABA 48 hours
Quick rule for you: logFC high GFP at 2 or higher means true (1), lower means false (0).

Solved entries:
Assess whether reported logFC high GFP for FAM22F-20: 60-aa TAD-seq fragment of FAM22F (PAETKVPEEIPPEVVQEYVDIMEELLGSHPGDTGEPEGQREKGKVEQPQEEDGITSDPGL; listed as Homo sapiens) sits at 2 or higher.
true (1)

Assess whether reported logFC high GFP for SERTAD2-11: 60-aa TAD-seq fragment of SERTAD2 (SEAGTQKLDGPQESRADDSKLMDSLPGNFEITTSTGFLTDLTLDDILFADIDTSMYDFDP; listed as Homo sapiens) sits at 2 or higher.
true (1)

Assess whether reported logFC high GFP for C3orf62-11: 60-aa TAD-seq fragment of C3orf62 (NHMCGHCQDSPFKEEAWALLMDKSPQKATDADPGSLKQAFDDHNIVETVLDLEEDYNVMT; listed as Homo sapiens) [Fragment C3orf62-11] sits at 2 or higher.
true (1)

Further cases:
Assess whether reported logFC high GFP for HSF1-25: 60-aa TAD-seq fragment of HSF1 (AQPLFLLDPGSVDTGSNDLPVLFELGEGSYFSEGDGFAEDPTISLLTGSEPPKAKDPTVS; listed as Homo sapiens) sits at 2 or higher.
false (0)

Assess whether reported logFC high GFP for NPAS4-37: 60-aa TAD-seq fragment of NPAS4 (DPSEEWGSGDPEAEGPGGAPSPCNNLSPEDHSFLEDLATYETAFETGVSAFPYDGFTDEL; listed as Homo sapiens) sits at 2 or higher.
false (0)

Assess whether reported logFC high GFP for BTBD18-24: 60-aa TAD-seq fragment of BTBD18 (IDCREPYAFDTALLEQPCEAEEYRITSAAATSELEEILDFMLCGSDIEPPIGSLESPGAE; listed as Homo sapiens) sits at 2 or higher.
false (0)

Assess whether reported logFC high GFP for ZXDC-16: 60-aa TAD-seq fragment of ZXDC (SLVVPSGGRPGPAPAAGVQCGAQGVQVQLVQDDPSGEGVLPSARGPATFLPFLTVDLPVY; listed as Homo sapiens) sits at 2 or higher.
false (0)

Assess whether reported logFC high GFP for KLF15-6: 60-aa TAD-seq fragment of KLF15 (GPVAWGPWRRAAAPVKGEHFCLPEFPLGDPDDVPRPFQPTLEEIEEFLEENMEPGVKEVP; listed as Homo sapiens) sits at 2 or higher.
true (1)

Assess whether reported logFC high GFP for BRD8-25: 60-aa TAD-seq fragment of BRD8 (GEELDFETVGDIIAIIEDKVDDHPEVLDVAAVEAALSFCEENDDPQSLPGPWEHPIQQER; listed as Homo sapiens) sits at 2 or higher.
false (0)

Assess whether reported logFC high GFP for KLF7-2: 60-aa TAD-seq fragment of KLF7 (YFSALPSLEETWQQTCLELERYLQTEPRRISETFGEDLDCFLHASPPPCIEESFRRLDPL; listed as Homo sapiens) sits at 2 or higher.
false (0)

Assess whether reported logFC high GFP for NEUROD1-6: 60-aa TAD-seq fragment of NEUROD1 (LRRMKANARERNRMHGLNAALDNLRKVVPCYSKTQKLSKIETLRLAKNYIWALSEILRSG; listed as Homo sapiens) sits at 2 or higher.
false (0)

Assess whether reported logFC high GFP for NPAS4-36: 60-aa TAD-seq fragment of NPAS4 (DNMFLEETPVEDIFMDLSTPDPSEEWGSGDPEAEGPGGAPSPCNNLSPEDHSFLEDLATY; listed as Homo sapiens) sits at 2 or higher.
false (0)

Assess whether reported logFC high GFP for HOXA2-4: 60-aa TAD-seq fragment of HOXA2 (PGSHPRHGAGGRPKPSPAGSRGSPVPAGALQPPEYPWMKEKKAAKKTALLPAAAAAATAA; listed as Homo sapiens) sits at 2 or higher.
false (0)
